test: Cytotoxicity assay against peritoneal macrophages (MTT); type: cell-based, mouse; conditions: mouse peritoneal macrophages, MTT, 24 h
Readout Kind: CC50 at 24 h (µM)
Numbers only, in µM.

Notebook: c1ccc2nc3c4cccnc4c4ncccc4c3nc2c1 [Dppz, dipyrido[3,2-a:2',3'-c]phenazine] , CC50 at 24 h read as 12.5

Data credit: paper PMC6268262
